target: Tyrosine-protein phosphatase non-receptor type 1 (Homo sapiens); experiment: Inhibition of PTP1B (unknown origin) at 5 ug/ml
Label class 1 when inhibition is at or above 80%; anything below gets class 0.

Worked examples follow.
Threshold query (inhibition >= 80%) on O=C(Cc1cccc2ccccc12)Nc1nnc(-c2ccc(Oc3ccc([N+](=O)[O-])cc3)cc2)s1
class 0

Threshold query (inhibition >= 80%) on O=C(Nc1nnc(-c2ccc(Oc3ccc([N+](=O)[O-])cc3)cc2)s1)c1ccccc1Cl
class 0

Threshold query (inhibition >= 80%) on COc1ccccc1C(=O)Nc1nnc(-c2ccc(Oc3ccc([N+](=O)[O-])cc3[N+](=O)[O-])cc2)s1
class 1

Threshold query (inhibition >= 80%) on O=C(Nc1nnc(-c2ccc(Oc3ccc([N+](=O)[O-])cc3)cc2)s1)c1cccnc1
class 1

Threshold query (inhibition >= 80%) on COc1cccc(C(=O)Nc2nnc(-c3ccc(Oc4ccc([N+](=O)[O-])cc4)cc3)s2)c1
class 0

Turning now to a further molecule:
Threshold query (inhibition >= 80%) on O=C(Nc1nnc(-c2ccc(Oc3ccc([N+](=O)[O-])cc3[N+](=O)[O-])cc2)s1)c1cccc([N+](=O)[O-])c1
class 1

----------
Recorded pIC50, one value per entry.
Biological target: UniProtKB P30305
Sequence (P30305 whole entry): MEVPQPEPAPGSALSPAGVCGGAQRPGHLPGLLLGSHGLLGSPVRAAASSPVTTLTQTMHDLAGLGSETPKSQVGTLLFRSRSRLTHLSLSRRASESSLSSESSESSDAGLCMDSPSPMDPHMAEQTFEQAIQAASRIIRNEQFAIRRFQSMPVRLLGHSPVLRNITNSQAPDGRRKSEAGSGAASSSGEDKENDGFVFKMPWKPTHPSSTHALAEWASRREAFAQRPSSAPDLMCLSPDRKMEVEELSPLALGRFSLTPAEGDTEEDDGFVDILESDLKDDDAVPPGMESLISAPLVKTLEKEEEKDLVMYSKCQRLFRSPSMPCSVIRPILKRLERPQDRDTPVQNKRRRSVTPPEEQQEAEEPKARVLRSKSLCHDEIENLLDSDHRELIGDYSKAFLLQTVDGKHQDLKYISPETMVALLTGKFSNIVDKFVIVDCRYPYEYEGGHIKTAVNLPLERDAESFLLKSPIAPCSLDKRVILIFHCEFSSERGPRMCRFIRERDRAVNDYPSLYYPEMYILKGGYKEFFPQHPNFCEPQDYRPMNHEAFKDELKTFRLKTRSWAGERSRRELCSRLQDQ
Please express pIC50 as -log10 of the molar concentration.

Solved cases below.
Which pIC50 is reported for this compound? O=C(Nc1nnc(-c2ccc(Oc3ccc([N+](=O)[O-])cc3)cc2)s1)c1ccccc1
5.11

Which pIC50 is reported for this compound? O=C(Nc1nnc(-c2ccc(Oc3ccc([N+](=O)[O-])cc3[N+](=O)[O-])cc2)s1)c1ccc([N+](=O)[O-])cc1
5.03

Now examine the next entry.
Which pIC50 is reported for this compound? O=C(Nc1nnc(-c2ccc(Oc3ccc([N+](=O)[O-])cc3)cc2)s1)c1cccnc1
5.10

----------
Molecular target: Tyrosine-protein phosphatase non-receptor type 1 (Homo sapiens)
Sequence (P18031 whole entry): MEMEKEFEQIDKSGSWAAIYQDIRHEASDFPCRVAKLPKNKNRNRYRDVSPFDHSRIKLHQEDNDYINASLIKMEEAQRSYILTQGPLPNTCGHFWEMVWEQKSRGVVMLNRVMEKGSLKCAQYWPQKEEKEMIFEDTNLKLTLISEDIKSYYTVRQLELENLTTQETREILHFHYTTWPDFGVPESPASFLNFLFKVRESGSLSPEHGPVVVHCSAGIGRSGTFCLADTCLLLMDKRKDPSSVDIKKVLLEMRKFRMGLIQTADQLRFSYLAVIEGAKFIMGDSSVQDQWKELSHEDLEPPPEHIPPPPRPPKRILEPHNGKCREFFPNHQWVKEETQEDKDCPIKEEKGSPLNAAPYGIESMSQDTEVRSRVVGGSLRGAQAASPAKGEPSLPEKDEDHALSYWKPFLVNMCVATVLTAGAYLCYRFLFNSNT
Recorded pIC50, one value per entry.
Please express pIC50 as -log10 of the molar concentration.

Solved cases below.
Which pIC50 is reported for this compound? O=C(Nc1nnc(-c2ccc(Oc3ccc([N+](=O)[O-])cc3[N+](=O)[O-])cc2)s1)c1cccc([N+](=O)[O-])c1
5.57

Which pIC50 is reported for this compound? COc1ccc(C(=O)Nc2nnc(-c3ccc(Oc4ccc([N+](=O)[O-])cc4[N+](=O)[O-])cc3)s2)cc1
5.12

Now examine the next entry.
Which pIC50 is reported for this compound? O=C(Nc1nnc(-c2ccc(Oc3ccc([N+](=O)[O-])cc3)cc2)s1)c1cccc([N+](=O)[O-])c1
5.74
